Biological target: UniProt:Q800C7
Assay: Agonist-evoked responses, two-electrode voltage clamp in Xenopus oocytes
Here the recorded EC50 is given for each entry.
Write the answer as a number in µM, unit excluded.

Indicate its recorded EC50; the molecule in question is O=c1cccc2n1C[C@@H]1CNC[C@H]2C1
15

Indicate its recorded EC50; the molecule in question is CN1CCC[C@H]1c1cccnc1
27

Now let's try a different one.
Indicate its recorded EC50; the molecule in question is CC(=O)OCC[N+](C)(C)C
39

###

Target: zebrafish α7 nAChR (Danio rerio, UniProt Q800C7)
Sequence (Q800C7 23-509): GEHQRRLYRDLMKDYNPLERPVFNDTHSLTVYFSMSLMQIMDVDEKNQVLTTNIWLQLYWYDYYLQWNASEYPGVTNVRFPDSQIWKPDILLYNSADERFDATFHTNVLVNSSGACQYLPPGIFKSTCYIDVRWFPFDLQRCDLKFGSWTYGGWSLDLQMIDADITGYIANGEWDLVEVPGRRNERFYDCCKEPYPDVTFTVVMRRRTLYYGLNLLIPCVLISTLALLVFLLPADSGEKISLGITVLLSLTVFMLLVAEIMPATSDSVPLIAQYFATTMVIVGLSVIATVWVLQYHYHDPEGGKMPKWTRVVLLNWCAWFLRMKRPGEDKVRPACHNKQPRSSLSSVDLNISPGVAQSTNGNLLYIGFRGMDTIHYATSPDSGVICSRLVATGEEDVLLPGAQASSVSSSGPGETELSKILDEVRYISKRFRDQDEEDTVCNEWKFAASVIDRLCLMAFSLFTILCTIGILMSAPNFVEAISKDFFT
Assay: cell-based
Details: Net charge IC50, α7, co-application with 60 µM ACh
Endpoint: pIC50
In textbook form, pIC50 equals minus log to base ten of the concentration in mol/L.

Indicate its recorded pIC50; the compound in question is CNC1(C)C2CCC(C2)C1(C)C (stereo not shown) [mecamylamine]
4.89
